assay: Quantitative high throughput screen to test cell viability of anti-malarial compounds targeting the delayed death phenotype.; settings: HepG2 viability, CellTiter-Glo luminescence, 48 h
Endpoint label: max response (%)

> print(dat)
                                   compound  endpoint.label  unit.symbol  test.result
1  COc1ccc(Nc2nnc(-c3ccc(C)cc3)c3ccccc23)cc1C(=O)N1CCCCC1    max response            %        -6.06
2  Cc1ccc(CN2CCC(n3nccc3NC(=O)c3ccccc3C)CC2)o1    max response            %         13.2
3  COc1ccc(CNC(=O)C2CCC(CNS(=O)(=O)c3cccc4cccnc34)CC2)cc1 (stereo not drawn)    max response            %         4.48
4        Cc1sc2nc[nH]c(=O)c2c1-c1ccc(Cl)cc1    max response            %         3.87
5  COc1ccc(C(=O)N2CCN(S(=O)(=O)c3ccc(C)cc3C)CC2)cc1OC    max response            %        -11.6
6  O=C(CNC(=O)C1CCCCC1)OC(C(=O)c1ccccc1)c1ccccc1 (stereo not drawn)    max response            %         20.4
7  CCOc1ccc(S(=O)(=O)Nc2cc(S(=O)(=O)N(CC)CC)ccc2N2CCCC2)cc1    max response            %        -26.9
8   COc1ccccc1N1CCN(CCC(=O)Nc2ccc(F)cc2)CC1    max response            %          6.7

====

assay: Quantitative high throughput screen to test cell viability of anti-malarial compounds targeting the delayed death phenotype.; conditions: HepG2 viability, CellTiter-Glo luminescence, 48 h
Endpoint label: max response (%)

Compound	Test result
CCCCOc1ccc(N2C(N)=NC(N)=NC23CCCCC3)cc1	-12
COc1cccc(CN2CCN(c3nc4nonc4nc3N3CCCCC3)CC2=O)c1	15.7
COc1ccc2cc3cc(C(=O)Nc4ccc5c(c4)OCO5)oc3nc2c1	-29.2
CO[C@@H]1[C@@H](OC2OC(C)C(OC3CC(C)(O)C(OC(=O)CC(C)C)C(C)O3)C(N(C)C)C2O)[C@@H](CC=O)C[C@@H](C)C(=O)/C=C\C2O[C@H]2C[C@@H](C)OC(=O)C[C@H]1OC(C)=O (some centres undefined)	14.6
CCCCN(CCCNC(=O)c1ccc(CS(=O)(=O)c2ccc(OC)cc2)o1)Cc1ccccc1	-1.11
CN(C)c1ccc(CN(C(=O)c2ccccc2Br)C2CCS(=O)(=O)C2)cc1 (centres undefined)	14.8
O=C(c1ccc([N+](=O)[O-])cc1)n1nc(-c2ccccc2)nc1NCc1ccc(F)cc1	17.5
CCc1nc(SCC(=O)Nc2ccc(N(C)C)cc2)n[nH]1	1.4
CCCc1c(CC)c(=N)c2ccccc2n1C	13.6

====

test: Quantitative high throughput screen to test cell viability of anti-malarial compounds targeting the delayed death phenotype.; details: HepG2 viability, CellTiter-Glo luminescence, 48 h
Recorded max response determines the label; the label ranges are zone 1 (below 5%), zone 2 (5% to below 10%), zone 3 (10% or more)

Compound	Qualitative label
O=C(Nc1ccccc1N1CCOCC1)c1cccc(S(=O)(=O)N2CCOCC2)c1	zone 1
CCCc1cc(=O)oc2cc(OC(C)C(=O)NCc3ccccn3)c(Cl)cc12 (centres undefined)	zone 3
CCN(CC)C(=O)COc1coc(CN2CCN(c3cccc(Cl)c3)CC2)cc1=O	zone 1
CCC(=O)OC1C(N(C)C)CC(C)O[C@H]1O[C@H]1[C@H](C)[C@@H](O[C@H]2CC(OC)[C@@H](O)C(C)O2)[C@H](C)C(=O)O[C@@H](CC)[C@](C)(O)[C@@H](O)[C@H](C)C(=O)[C@@H](C)C[C@]1(C)O (some centres undefined)	zone 3
c1csc(CNc2ncnc3nc[nH]c23)c1	zone 3
CCOc1ccc(NC(=O)C[n+]2ccc(N(C)C)cc2)cc1	zone 2
CCOc1ccc(C(=O)Nc2ccc(N3CCN(C)CC3)cc2)cc1	zone 2
Cc1c(F)c(N2CCNC(C)C2)cc2c1c(=O)c(C(=O)O)cn2C1CC1 (centres undefined)	zone 3
